FYI, the data here is from ChEMBL document CHEMBL2057062.

Would you mind telling me the reported inhibition of each entry?
target: Translocator protein (Rattus norvegicus); test: Displacement of [3H]PK11195 from TSPO in rat kidney mitochondrial membranes at 1 uM by competitive binding assay; assay type: cell membranes; conditions: Membrane
One number for each entry, in %.

Worked set:
# Compound, Readout Units, inhibition
records = [
    ("O=C(c1nc(-c2ccccc2)c2ccccc2n1)N1CCCCC1", "%", 61),
    ("CCC(C)NC(=O)c1nc(-c2ccccc2Cl)c2cc(Cl)ccc2n1 (stereo unspecified)", "%", 0),
    ("O=C(c1nc(-c2ccc(Cl)cc2)c2cc(Cl)ccc2n1)N1CCCCC1", "%", 76),
    ("CC(C)CN(C)C(=O)c1nc(-c2ccccc2Cl)c2cc(Cl)ccc2n1", "%", 77),
    ("CC(C)N(C)C(=O)c1nc(-c2ccc(Cl)cc2)c2cc(Cl)ccc2n1", "%", 39),
    ("O=C(c1nc(-c2ccc(Cl)cc2)c2cc(Cl)ccc2n1)N1CCCCCC1", "%", 77),
    ("O=C(c1nc(-c2ccc(Cl)cc2)c2cc(Cl)ccc2n1)N1CCCC1", "%", 64),
    ("O=C(c1nc(-c2ccccc2)c2ccccc2n1)N1CCCCCC1", "%", 79),
]

State the recorded inhibition for every item in the following list.
1. O=C(c1nc(-c2ccccc2)c2ccccc2n1)N1CCCC1
2. O=C(c1nc(-c2ccccc2)c2cc(Cl)ccc2n1)N1CCCCCC1
3. CC(C)N(C)C(=O)c1nc(-c2ccccc2)c2cc(Cl)ccc2n1

Response:
1. 36
2. 38
3. 0

---

species on record: Rattus norvegicus; test: Displacement of [3H]flumazenil from central benzodiazepine receptor in rat cerebral cortex membranes at 10 uM after 90 mins by competitive binding assay; type: cell membranes; settings: Membrane
Metric Name: inhibition (%)
Give bare numbers, in %.

Worked set:
# Compound, inhibition / %
measured = [
    ("CCC(C)N(C)C(=O)c1nc(-c2ccccc2Cl)c2ccccc2n1 (configuration not stated)", 0),
    ("O=C(c1nc(-c2ccc(Cl)cc2)c2ccccc2n1)N1CCCCC1", 0),
    ("CCCCCCN(CCCCCC)C(=O)c1nc(-c2ccccc2Cl)c2cc(Cl)ccc2n1", 0),
    ("CN1C(=O)CN=C(c2ccccc2F)c2cc([N+](=O)[O-])ccc21", 0),
    ("CCOC(=O)c1ncn2c1CN(C)C(=O)c1cc(F)ccc1-2", 0),
    ("CCCN(CCC)C(=O)c1nc(-c2ccccc2)c2ccccc2n1", 0),
]

State the recorded inhibition for every item in the following list.
1. CCCCCCN(CCCCCC)C(=O)c1nc(-c2ccc(Cl)cc2)c2ccccc2n1
2. CC(C)N(C)C(=O)c1nc(-c2ccc(Cl)cc2)c2ccccc2n1
3. CCCCCCN(CCCCCC)C(=O)c1nc(-c2ccccc2)c2cc(Cl)ccc2n1
4. O=C(c1nc(-c2ccccc2Cl)c2cc(Cl)ccc2n1)N1CCCCC1
5. O=C(c1nc(-c2ccccc2)c2ccccc2n1)N1CCCCCC1
6. CC[C@@H](C)N(C)C(=O)c1nc(-c2ccccc2Cl)c2ccccc2n1
7. CCC(C)N(C)C(=O)c1nc(-c2ccccc2)c2ccccc2n1 (configuration not stated)
8. CN1C(=O)CN=C(c2ccc(Cl)cc2)c2cc(Cl)ccc21

Response:
1: 0; 2: 0; 3: 0; 4: 0; 5: 0; 6: 0; 7: 0; 8: 0

State the recorded inhibition for every item in the following list.
1. CCC(C)NC(=O)c1nc(-c2ccc(Cl)cc2)c2ccccc2n1 (configuration not stated)
2. CC(C)N(C)C(=O)c1nc(-c2ccccc2Cl)c2cc(Cl)ccc2n1
3. CC(C)N(C)C(=O)c1nc(-c2ccc(Cl)cc2)c2cc(Cl)ccc2n1
4. O=C(c1nc(-c2ccc(Cl)cc2)c2cc(Cl)ccc2n1)N1CCCC1
5. CC(C)CN(C)C(=O)c1nc(-c2ccccc2Cl)c2ccccc2n1

Response:
1. 0
2. 0
3. 0
4. 0
5. 0
